- System: UACC-257
- Experiment description: NCI tumour cell line growth inhibition, 48 h
Calls of active or inactive are those of the source. No stated cut-off is given here; in the data, active = GI50 up to about 1.1 µM and inactive = higher.
Please answer using one outcome listed in class 1 (active), class 0 (inactive)

Here's what some known entries look like.
molecule=CN(C)c1nc2sc3c(c2c(=O)o1)CCCC3 classification="class 0"
molecule="Cc1c(CNc2ccc(C(=O)NC(CCCNC(=O)c3ccccc3C(=O)O)C(=O)O)cc2)cnc2nc(N)nc(N)c12 (stereo not drawn)" classification="class 1"
molecule=Cc1ccc(C2=C(c3ccccc3)C(Br)(c3ccc(C)cc3)C(c3ccccc3)=C2c2ccc(C)cc2)cc1 classification="class 0"
molecule=CCOC(=O)/C(=C/c1cccc(OC)c1)N(CC)CC classification="class 0"
molecule=COc1ccc2c(c1)CCCc1c-2nc2ccccc2c1N classification="class 0"
molecule=S=C(NCc1ccccn1)N/N=C/c1ccccn1 classification="class 1"
molecule="COC(=O)/C1=C/c2c([nH]c3ccccc23)/C(C(=O)OC)=C\\c2c1[nH]c1ccccc21 [CAULERPIN]" classification="class 0"

--- query ---
Prompt line: Look up the recorded call for CN1COCc2c1ccc1cc3ccc4c(c3nc21)COCN4S(C)(=O)=O in this test.
Response line: class 0

* * *

- Tested on: ACHN
- Experiment description: NCI tumour cell line growth inhibition, 48 h
Calls of active or inactive are those of the source. Cut-off read from the data, not from the text of the source: active = GI50 up to about 1.1 µM and inactive = higher.
Please answer using one outcome listed in YES (active), NO (inactive)

compound=CC(=S)N/C=C1/C(=O)C=C(C)OC1=O classification=NO
compound="COc1cc(/C=C2\\CCC(C)C3=C2N=c2s/c(=C/c4ccc(Cl)cc4)c(=O)n2C3c2cc(OC)c(OC)c(OC)c2)cc(OC)c1OC (stereo not drawn)" classification=NO
compound=COc1cc(/C=N/n2c(-c3ccccc3)n[nH]c2=O)cc(OC)c1OC classification=NO

Prompt line: Look up the recorded call for Cn1c(=O)c2c(ncn2CCCCn2ccnc2[N+](=O)[O-])n(C)c1=O in this test.
Response line: NO

Prompt line: Look up the recorded call for CC1Cc2c(N)nc(N3CCOCC3)nc2NC1=O (stereo not drawn) in this test.
Response line: NO

Prompt line: Look up the recorded call for O=C1c2ccccc2N2OC3(N4CCCC4)CCCC3C12c1ccccc1 (stereo not drawn) in this test.
Response line: NO

Prompt line: Look up the recorded call for C=CC[C@H]1C[C@@]2(C)OC[C@H](C(C)C)N2C1=O in this test.
Response line: NO

Prompt line: Look up the recorded call for CC(=O)NC1C(OCc2ccccc2)OC(CO)C(O)C1OC(C)C(=O)NC(C)C(=O)N[C@@H](CCC(=O)OCCCNC1c2ccccc2Nc2cccc([N+](=O)[O-])c21)C(N)=O (stereo partly drawn) in this test.
Response line: YES

Prompt line: Look up the recorded call for COC(=O)CNC(=O)C(Cc1ccccc1)NC(=O)c1ccc(-c2ccc(Cl)cc2Cl)o1 (stereo not drawn) in this test.
Response line: NO

Prompt line: Look up the recorded call for CCCCCCCCCCCCCCCCCC[N+](C)(C)Cc1ccc(C[N+](C)(C)CCCCCCCCCCCCCCCCCC)cc1 in this test.
Response line: NO

Prompt line: Look up the recorded call for COC1=C(NC(C)=O)C(=O)c2nc3n(c2C1=O)CCC3 in this test.
Response line: NO

Prompt line: Look up the recorded call for O=C(CSCC(=O)N/N=C/c1cccs1)N/N=C/c1cccs1 in this test.
Response line: NO

Prompt line: Look up the recorded call for O=S(=O)(OI(O)CC(F)(F)F)C(F)(F)F in this test.
Response line: NO

Prompt line: Look up the recorded call for Cc1c(Cl)nc(Cl)nc1Cl in this test.
Response line: YES

Prompt line: Look up the recorded call for O=C1c2sc(-c3ccc(Cl)cc3)cc2-n2cccc21 in this test.
Response line: NO

Prompt line: Look up the recorded call for c1ccc(C2C(=P(c3ccccc3)(c3ccccc3)c3ccccc3)P=PC2[P+](c2ccccc2)(c2ccccc2)c2ccccc2)cc1.c1ccc([B-](c2ccccc2)(c2ccccc2)c2ccccc2)cc1 (stereo not drawn) in this test.
Response line: YES

Prompt line: Look up the recorded call for COC(=O)c1c[nH]c2c1-c1cc(C(=O)OCc3ccccc3)n(S(=O)(=O)c3ccc(C)cc3)c1C(=O)C2=O in this test.
Response line: YES

Prompt line: Look up the recorded call for CN(OC(=O)CC(=O)c1ccccc1)C(=O)Cc1ccccc1 in this test.
Response line: NO
